- Tested on: Klebsiella pneumoniae
- measurement.notes: Antibacterial activity against Klebsiella pneumoniae GN69 by agar dilution method
- Format: functional
# MIC annotations
assay.endpoint: MIC (µg/mL)

INSERT INTO results (smiles_structure, measured_value) VALUES
  ('C[C@@H](O)[C@H]1C(=O)N2C(C(=O)[O-])=C(c3cn4cnc(C(=O)c5ccc[n+](Cc6ccccc6)c5)c4s3)[C@H](C)[C@H]12', 1),
  ('C[C@@H](O)[C@H]1C(=O)N2C(C(=O)O)=C(c3cn4cnc(C(=O)c5cncs5)c4s3)[C@H](C)[C@H]12', 2),
  ('CCc1nc(C(=O)c2ccc[n+](CC(N)=O)c2)c2sc(C3=C(C(=O)[O-])N4C(=O)[C@H]([C@@H](C)O)[C@H]4[C@H]3C)cn12', 4);

###

# log10(MIC) annotations
- Tested on: Klebsiella pneumoniae
- measurement.notes: Antibacterial activity against Klebsiella pneumoniae GN69 by agar dilution method
- Type: functional
assay.endpoint: log10(MIC) (log10 of the value in µg/mL)

INSERT INTO assay_data (compound, measured_value) VALUES
  ('C[C@@H](O)[C@H]1C(=O)N2C(C(=O)[O-])=C(c3cn4cnc(C(=O)c5ccc[n+](CCNS(N)(=O)=O)c5)c4s3)[C@H](C)[C@H]12', -1.20),
  ('C[C@@H](O)[C@H]1C(=O)N2C(C(=O)O)=C(c3cn4cnc(C(=O)C5CCCCN5)c4s3)[C@H](C)[C@H]12 (stereo partly drawn)', -0.60),
  ('C[C@@H](O)[C@H]1C(=O)N2C(C(=O)O)=C(c3cn4cnc(C(=O)c5cccnc5)c4s3)[C@H](C)[C@H]12', 0.30),
  ('COCc1nc(C(=O)c2ccc[n+](CC(N)=O)c2)c2sc(C3=C(C(=O)[O-])N4C(=O)[C@H]([C@@H](C)O)[C@H]4[C@H]3C)cn12', 0.60),
  ('C[C@@H](O)[C@H]1C(=O)N2C(C(=O)[O-])=C(c3cn4c(N5CCOCC5)nc(C(=O)c5ccc[n+](CC(N)=O)c5)c4s3)[C@H](C)[C@H]12', 1.20),
  ('C[C@@H](O)[C@H]1C(=O)N2C(C(=O)O)=C(c3cn4cnc(C(=O)c5ccncc5)c4s3)[C@H](C)[C@H]12', 0.30),
  ('C[C@@H](O)[C@H]1C(=O)N2C(C(=O)O)=C(c3cn4cnc(C(=O)c5cnc6ccccc6c5)c4s3)[C@H](C)[C@H]12', 0.90),
  ('C[C@@H](O)[C@H]1C(=O)N2C(C(=O)O)=C(c3cn4cnc(C(=O)[C@@H]5C[C@@H](O)CN5)c4s3)[C@H](C)[C@H]12', -0.90),
  ('C[C@@H](O)[C@H]1C(=O)N2C(C(=O)O)=C(c3cn4cnc(C(=O)c5cccs5)c4s3)[C@H](C)[C@H]12', 0.60),
  ('CC(=O)C[n+]1cccc(C(=O)c2ncn3cc(C4=C(C(=O)[O-])N5C(=O)[C@H]([C@@H](C)O)[C@H]5[C@H]4C)sc23)c1', -0.60),
  ('C[C@@H](O)[C@H]1C(=O)N2C(C(=O)[O-])=C(c3cn4cnc(C(=O)c5ccc[n+](CC(=O)C(F)(F)F)c5)c4s3)[C@H](C)[C@H]12', -0.60),
  ('C[C@@H](O)[C@H]1C(=O)N2C(C(=O)O)=C(c3cn4cnc(C(=O)C5CCNCC5)c4s3)[C@H](C)[C@H]12', -0.90),
  ('C[C@@H](O)[C@H]1C(=O)N2C(C(=O)[O-])=C(c3cn4cnc(C(=O)c5ccc[n+](CCS(C)(=O)=O)c5)c4s3)[C@H](C)[C@H]12', -0.30);

Hey, just so you know, these numbers are from ChEMBL document CHEMBL1144513.
